- MEASUREMENT TARGET: Nitric oxide synthase, inducible (Mus musculus, UniProt P29477)
- Sequence (P29477 whole entry): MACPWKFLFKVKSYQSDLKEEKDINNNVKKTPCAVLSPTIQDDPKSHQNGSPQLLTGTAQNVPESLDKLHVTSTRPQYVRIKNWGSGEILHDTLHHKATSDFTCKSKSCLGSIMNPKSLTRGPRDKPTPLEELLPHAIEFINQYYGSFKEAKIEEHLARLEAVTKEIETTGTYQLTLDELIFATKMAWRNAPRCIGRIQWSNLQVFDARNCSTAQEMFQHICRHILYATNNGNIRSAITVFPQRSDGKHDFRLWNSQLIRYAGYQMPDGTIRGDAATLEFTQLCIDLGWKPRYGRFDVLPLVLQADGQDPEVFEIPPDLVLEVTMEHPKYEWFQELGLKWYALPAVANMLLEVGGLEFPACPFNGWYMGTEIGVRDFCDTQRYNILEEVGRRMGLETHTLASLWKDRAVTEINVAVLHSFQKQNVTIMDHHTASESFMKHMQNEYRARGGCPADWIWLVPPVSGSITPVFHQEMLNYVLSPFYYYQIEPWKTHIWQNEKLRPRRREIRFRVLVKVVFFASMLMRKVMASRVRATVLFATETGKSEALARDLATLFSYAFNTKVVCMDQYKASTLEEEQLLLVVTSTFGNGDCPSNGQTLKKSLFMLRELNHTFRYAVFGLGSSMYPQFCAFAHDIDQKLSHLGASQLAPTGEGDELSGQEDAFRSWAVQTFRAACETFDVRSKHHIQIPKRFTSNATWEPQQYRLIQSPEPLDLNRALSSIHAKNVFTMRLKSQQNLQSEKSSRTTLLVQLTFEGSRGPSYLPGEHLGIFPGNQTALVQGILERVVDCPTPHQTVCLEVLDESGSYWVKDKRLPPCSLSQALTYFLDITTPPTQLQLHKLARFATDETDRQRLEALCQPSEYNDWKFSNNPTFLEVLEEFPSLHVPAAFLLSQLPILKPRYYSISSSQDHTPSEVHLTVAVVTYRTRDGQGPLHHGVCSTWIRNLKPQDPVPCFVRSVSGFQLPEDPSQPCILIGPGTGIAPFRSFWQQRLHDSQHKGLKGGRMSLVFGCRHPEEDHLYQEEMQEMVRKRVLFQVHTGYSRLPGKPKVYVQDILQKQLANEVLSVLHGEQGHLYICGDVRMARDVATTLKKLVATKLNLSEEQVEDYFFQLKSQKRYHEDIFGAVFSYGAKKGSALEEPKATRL
- MEASUREMENT NOTES: Inhibition of mouse recombinant inducible NOS by hemoglobin capture assay
Give measured pKi for each item. Keep answers brief.
In simple prose, pKi is minus the logarithm base ten of a concentration in moles per litre.

q: Request the reported pKi associated with N=C(NCCC[C@H](N)C(=O)N(O)[C@H]1CN[C@H](C(N)=O)C1)N[N+](=O)[O-]
a: 4.80

q: Item: N=C(NCCC[C@H](N)CN(O)CCN)N[N+](=O)[O-]
a: 4.80

q: Another compound to check: N=C(NCCC[C@H](N)CN(N)CCN)N[N+](=O)[O-]
a: 4.43

q: # iterate: N=C(NCCC[C@H](N)C(=O)O)N[N+](=O)[O-]
a: 5.37

* * *

Please respond with reported Ki for every item in the list.
- MEASUREMENT TARGET: Nitric oxide synthase 3 (Bos taurus)
- Sequence (P29473 whole entry): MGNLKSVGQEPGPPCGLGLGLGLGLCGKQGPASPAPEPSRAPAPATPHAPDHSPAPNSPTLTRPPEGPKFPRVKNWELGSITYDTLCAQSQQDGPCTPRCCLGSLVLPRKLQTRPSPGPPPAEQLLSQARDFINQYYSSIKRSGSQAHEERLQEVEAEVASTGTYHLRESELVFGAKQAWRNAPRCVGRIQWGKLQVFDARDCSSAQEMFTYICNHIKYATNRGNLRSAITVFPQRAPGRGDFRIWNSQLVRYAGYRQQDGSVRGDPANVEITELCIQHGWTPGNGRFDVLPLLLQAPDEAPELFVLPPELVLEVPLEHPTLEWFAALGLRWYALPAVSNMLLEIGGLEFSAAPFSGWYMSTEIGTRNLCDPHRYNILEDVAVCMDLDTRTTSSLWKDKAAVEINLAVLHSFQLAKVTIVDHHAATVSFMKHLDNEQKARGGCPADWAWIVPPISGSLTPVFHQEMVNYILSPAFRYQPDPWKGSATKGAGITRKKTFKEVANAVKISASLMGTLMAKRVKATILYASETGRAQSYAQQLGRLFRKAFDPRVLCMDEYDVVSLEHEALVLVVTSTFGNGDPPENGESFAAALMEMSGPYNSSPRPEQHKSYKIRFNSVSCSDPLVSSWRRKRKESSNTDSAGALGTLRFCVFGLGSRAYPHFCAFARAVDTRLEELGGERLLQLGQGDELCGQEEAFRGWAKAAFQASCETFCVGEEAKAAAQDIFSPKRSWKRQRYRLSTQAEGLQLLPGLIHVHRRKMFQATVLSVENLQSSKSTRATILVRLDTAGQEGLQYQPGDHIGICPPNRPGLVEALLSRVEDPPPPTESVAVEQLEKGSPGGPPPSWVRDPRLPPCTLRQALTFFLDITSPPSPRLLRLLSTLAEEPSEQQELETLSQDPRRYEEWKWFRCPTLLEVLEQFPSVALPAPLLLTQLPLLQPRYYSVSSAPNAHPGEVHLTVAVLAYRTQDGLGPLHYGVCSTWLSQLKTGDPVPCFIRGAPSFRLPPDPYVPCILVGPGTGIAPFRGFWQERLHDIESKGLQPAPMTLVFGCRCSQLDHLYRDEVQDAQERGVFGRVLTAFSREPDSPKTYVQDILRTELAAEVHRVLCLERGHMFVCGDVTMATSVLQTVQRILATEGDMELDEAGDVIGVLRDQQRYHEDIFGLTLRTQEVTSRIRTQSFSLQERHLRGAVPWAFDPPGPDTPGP
- MEASUREMENT NOTES: Inhibition of bovine recombinant endothelial NOS by hemoglobin capture assay
Report as a plain number; the unit µM is understood.

q: May I ask what Ki has been recorded for N=C(NCCC[C@H](N)C(=O)N(O)[C@H]1CN[C@H](C(N)=O)C1)N[N+](=O)[O-] ?
a: 35

q: Same lookup for N=C(NCCC[C@H](N)CN(N)CCN)N[N+](=O)[O-] , please.
a: 103

q: Here is the next molecule: N=C(NCCC[C@H](N)CN(O)CCN)N[N+](=O)[O-]
a: 73

* * *

- MEASUREMENT NOTES: Inhibition of bovine recombinant neuronal NOS by hemoglobin capture assay
- Parameters: species or system Bos taurus
PROPERTY LABEL: Ki (nM)
Supply the numeric figure in nM, leaving out any unit text.

q: State the recorded Ki for this entry: N=C(NCCC[C@H](N)C(=O)N(O)[C@H]1CN[C@H](C(N)=O)C1)N[N+](=O)[O-]
a: 310

q: Queued: NC(=O)[C@@H]1C[C@@H](NC(=O)[C@@H](N)CCC/N=C(\N)N[N+](=O)[O-])CN1
a: 330

q: Item: N=C(NCCC[C@H](N)CN(N)CCN)N[N+](=O)[O-]
a: 560

q: Input N=C(NCCC[C@H](N)CN(O)CCN)N[N+](=O)[O-]
a: 120

Sourced from ChEMBL document CHEMBL1147156
